Hey, just so you know, these numbers are from patent US11702422B2.

Test system: IL-17A-induced G-CSF production in human normal keratinocyte (NHK)
ASSAY_EXPLANATION: NHK Assay: IL-17A-induced G-CSF production in human normal keratinocytes
Assay type: cell-based
PROTOCOL_CONDITIONS: adult normal human keratinocytes, IL-17A 5 ng/mL, 24 h, simple average if tested more than once
# maps each entry to its IC50
Give just the numeric value; nM need not be written.

Take a look at these entries with their results.
According to the records, this compound Cc1c(C(=O)N[C@H](c2cn3ncc(C(NC(=O)CCC(F)(F)F)C4CC4)cc3n2)C2CCC(F)(F)CC2)cnn1CCC(F)(F)F (single isomer, unassigned) [Example 54] displays IC50 of 710

// field: IC50; key: CC(C)n1nccc1C(=O)N[C@H](c1cn2ncc(C(CC3CCC3)NC(=O)CC3CC(F)(F)C3)cc2n1)C1CCC(F)(F)CC1 (single isomer, unassigned) [Example 441] ; value = 1100

Looking up N#CC1(C(NC(=O)CC2CC(F)(F)C2)c2cnn3cc([C@@H](NC(=O)c4nonc4OCC(F)F)C4CCC(F)(F)CC4)nc3c2)CC1 (single isomer, unassigned) [Example 425] , I found its IC50 recorded as 20

Short answer for CCOCC(NC(=O)CC1CC(F)(F)C1)c1cnn2cc([C@@H](NC(=O)c3ccnn3C(C)C)C3CCC(F)(F)CC3)nc2c1 (single isomer, unassigned) [Example 528] : IC50 was 2400

IC50 reading for O=C(CC(C(F)(F)F)C(F)(F)F)NC(c1cnn2cc([C@@H](NC(=O)c3ccccc3)C3CCC(F)(F)CC3)nc2c1)C1CC1 (single isomer, unassigned) [Example 16] : 130

Entry Cc1nonc1C(=O)N[C@H](c1cn2ncc(C(CC#N)NC(=O)CC3CC(F)(F)C3)cc2n1)C1CCC(F)(F)CC1 (single isomer, unassigned) [Example 446] — recorded IC50 = 8800

Looking up CC(C)n1nccc1C(=O)N[C@H](c1cn2ncc(C(NC(=O)CC3CC(F)(F)C3)C(F)F)cc2n1)C1CCC(F)(F)CC1 (single isomer, unassigned) [Example 519] , I see its IC50 listed as 53

// field: IC50; key: CC(C)n1nccc1C(=O)N[C@H](c1cn2ncc(C(CC3CCC3)NC(=O)CC3CC(F)(F)C3)cc2n1)C1CCC(F)(F)CC1 (single isomer, unassigned) [Example 440] ; value = 59

Attention now shifts to the item below.
Measured IC50 of Cc1nonc1C(=O)N[C@@H](COC(C)(C)C)c1cn2ncc(C(NC(=O)CCC(F)(F)F)C3CC3)cc2n1 (single isomer, unassigned) [Example 314] : 2100

====

STUDY_SYSTEM: IL-17A(FLAG-Tagged): IL-17RA(His-Tagged) (Homo sapiens, UniProt Q16552, K93Q)
Sequence (Q16552 with tags, fused parts or gaps K93Q): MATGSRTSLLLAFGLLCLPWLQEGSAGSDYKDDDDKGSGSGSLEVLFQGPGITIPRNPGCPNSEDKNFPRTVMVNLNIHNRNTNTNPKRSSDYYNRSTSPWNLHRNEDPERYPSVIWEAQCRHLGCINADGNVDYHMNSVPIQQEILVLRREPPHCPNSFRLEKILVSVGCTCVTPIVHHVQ
ASSAY_EXPLANATION: IL-17A(FLAG-Tagged): IL-17RA(His-Tagged) Binding Disruption Eu-HTRF Assay
PROTOCOL_CONDITIONS: IL-17A/IL-17RA binding disruption, simple average if tested more than once
VALUE_TYPE: pIC50
Worth noting: pIC50 values are minus log10 of concentrations stated in mol/L.

Check out these entries, answers already filled in.
The value of pIC50 recorded for "Cc1nonc1C(=O)N[C@H](c1cn2ncc([C@H](NC(=O)COCC(F)(F)F)C3CC3)cc2n1)C1CCC(F)(F)CC1" when tested on IL-17A(FLAG-Tagged): IL-17RA(His-Tagged) (Homo sapiens, UniProt Q16552, K93Q) reads 6.70

Summary: "O=C(CCC(F)(F)F)N[C@@H](c1cnn2cc([C@@H](NC(=O)c3nccc(C(F)(F)F)n3)C3CCC(F)(F)CC3)nc2c1)C1CC1" , IL-17A(FLAG-Tagged): IL-17RA(His-Tagged) (Homo sapiens, UniProt Q16552, K93Q), pIC50 = 5.34

pIC50 value, target or system IL-17A(FLAG-Tagged): IL-17RA(His-Tagged) (Homo sapiens, UniProt Q16552, K93Q), for "CCc1cccc(C(=O)N[C@H](c2cn3ncc([C@H](NC(=O)CCC(F)(F)F)C4CC4)cc3n2)C2CCC(F)(F)CC2)n1" : 6.00

Here O=C(CCC(F)(F)F)N[C@@H](c1cnn2cc([C@@H](NC(=O)[C@H]3C[C@@H]3C(F)(F)F)C3CCC(F)(F)CC3)nc2c1)C1CC1 (relative stereo) was tested on IL-17A(FLAG-Tagged): IL-17RA(His-Tagged) (Homo sapiens, UniProt Q16552, K93Q), and its pIC50 came to 6.62

Others:
Item: O=C(CCC(F)(F)F)N[C@@H](c1cnn2cc([C@@H](NC(=O)[C@@H]3C[C@@H]3CF)C3CCC(F)(F)CC3)nc2c1)C1CC1 (relative stereo) | System: IL-17A(FLAG-Tagged): IL-17RA(His-Tagged) (Homo sapiens, UniProt Q16552, K93Q) | pIC50: 5.92

Response field pIC50 (IL-17A(FLAG-Tagged): IL-17RA(His-Tagged) (Homo sapiens, UniProt Q16552, K93Q)) for item "Cc1nonc1C(=O)N[C@H](c1cn2ncc([C@H](NC(=O)CC(C)(C)C(F)F)C3CC3)cc2n1)C1CCC(F)(F)CC1" : 6.43
